System: CD235+ erythroblasts
Test: CD235+ erythroid expansion of differentiating human cord blood CD34+ progenitors (shRPS19/shRPL11 DBA models), flow cytometry
Type: cell-based
Conditions: Homo sapiens; read-out: EC50 (erythroid expansion)
Endpoint Label: EC50 (mM)

CN(C)C(=N)N=C(N)N	11.4
